# Assay target: SARS-CoV-2 RBD protein (Sino Biological, Cat: 40592-V08B) (SARS-CoV-2, UniProt P0DTC2 319-541)
# Method notes: BLI (Octet), mAb on Protein A sensor

Binder: CoV2-13 (antibody, V domains shown) VH: QVQLQQSGAEVKKPGSSVKVSCKASGGNFRSHTFSWVRQAPGQGLEWMGEIMPRFGATNYAQKFQGRVTITADESTGTTYMELSSLKSHDTAVYFCAADLGSGRKFDSWAQGTLVSVSS VL: NIQMTQSPSSLSASVGDRVTITCRASQGIGSDLGWYQQRPGKAPKRLIYAASSLQSGVPSRFSGSGSGTEFTLTISSLQPEDFATYYCLQHNSYPLTFGQGTKVEIK
Kd [nM]: 50.7
//
Binder: CoV2-01 (antibody, V domains shown) VH: QVLLVQSGAEMKKPGASVKVSCKTSGYTFTNSYIHWVRQAPGQGLEWMGWINPISGGTNYAQKFQGRVTMTRDTSINTAYMELSRLRSDDTAVYYCARDRGDYDYGWGTSPFYFDYWGQGTLVTVSS VL: DVQMTQSPSSLSASVGDRVTITCRASQSISRYLNWYQQKPGKAPKLLIYAASSLQSGVPSRFSGSGSGADFTLTISSLQPEDFATYYCQQSFSPPITFGQGTRLEIK
Kd [nM]: 10.8
//
Binder: CoV2-11 (antibody, V domains shown) VH: QVELVESGGGLVQPGRSLRLSCEASGFSFDNYAMHWVRQTPGKGLEWVSGITGNSGTIGYADSVKGRFTISRDNAKNSLYLQMNRLRAEDTALYYCAKDTDYDSSGSYFDYWGQGTLVTVSS VL: QPVLTQPPSVAVAPGQTARITCGGKNIGRESVHWYQQKPDQAPVLVIYSDGDRPSGTSERFSGSRSGNAATLTISRVEAGDEADYFCQVWDPDTDHYVFGTGTELTVL
Kd [nM]: 4.97
//
Binder: CoV2-33 (antibody, V domains shown) VH: QVQLVESGGGLVQPGRSLRLSCAASRFTFDDHAMHWVRQAPGKGLEWVSGISWNGGIIGYADSVKGRFTISRDNAKNSLYLQMNSLRAEDTALYYCAKGMGFGESNYYAMDVWGQGTMVTVSS VL: QSALTQPASVSGSPGQSITISCTGTSSDVGGYNYVSWYQQHPGKAPKLIIYDVSNRPSGVSNRFSGSKSGNTASLTISGLQAEDEAYYYCSSYTSISNLVVFGGGTKVTVL
Kd [nM]: 168
//
Binder: CoV2-02 (antibody, V domains shown) VH: QVQMVQSGAEMKKPGASVKVSCKTSGYTFTNSYIHWVRQAPGQGLEWMGWINPISGGTNYAQKFQGRVTMTRDTSINTAYMELSRLRSDDTAVYYCARDRGDYDYGWGTSPFYFDYWGQGTLVSVSS VL: AIQMTQSPSSLSASVGDRVTITCRASQPISKYLNWYQQKPGKAPKLLIYAASSLQSGVPSSFSGSGFGTDFTLTISNLQPEDFATYYCQQSNGIPLTFGGGTKVDIK
Kd [nM]: 7.85
//
Binder: CoV2-20 (antibody, V domains shown) VH: QVQLVESGGDLVQPGRSLRLSCAASGFIFDDYAMHWVRQVPGKGPEWVSGVNRDSTYVGQADSVKGRFTISRDNAKKALFLQMDSLRVEDTALYYCVRGMTRVATDAFDFWGQGTMVTVSS VL: AIQMTQSPSSLSASVGDRVTITCRASQSINGYLNWYQQKPGKAPKLLIYSASRLQSGVPSRFSGSGSGADYTLTISNLQVEDFATYYCQQSYSTPPVTFGQGTRLEIK
Kd [nM]: 29.5
//
Binder: CoV2-17 (antibody, V domains shown) VH: QVELVESGGGLVKPGGSLRLSCAASGFTFSSYSMNWVRQAPGKGLEWVSSISSSSSYIYYADSVKGRFTISRDNAKNSLYLQMNSLRAEDTAVYYCARGNVDIVATGEVDAFDIWGQGTMVSVSS VL: QAVVTQPPSASGTLGQRVTISCSGSSSTIGSNYVYWYQQLPGTAPKLLIYRNNQRPSGVPDRFSGSKSGTSASLAISGLRSEDEADYYCAAWDDSLSGYVFGTGTQLTVL
Kd [nM]: 53.4
//
Binder: CoV2-05 (antibody, V domains shown) VH: EVQLVESGGGVARPGGSLRLSCAASGFTFDDYGMSWVRQVPGKGLEWVAGINWNGERIGYADSVKGRFTISRDNAKNSLYLQMNSLRAEDTALYYCARPSGDYVAWYFNLWGRGTLVTVSS VL: QAALTQPRSVSGSPGQSVTISCTGTGSDVGPYKYVSWYQQHPGKAPKLMIYDVNERPSGVPDRFSGSKSGNTASLTISGLQAEDEADYYCGSYAGNNKWVFGGGTKLTVL
Kd [nM]: 7.16
